- target-entity: T1, HLA-DR DRB5*0101 (human)
- T1 chain 1: not shown
- T1 chain 2: not shown
- assay-name: radiolabeled-peptide inhibition, purified HLA-DR
- setup-conditions: remark: other sources report otherwise
value-kind: IC50 (nM)

Recorded IC50, per entry:
Entry KIPVAIKVLRENTSP [1622.03] has what IC50?
1500

Entry CYGLGMEHLREVRAV [9019.0044] has what IC50?
3780

Entry SQFLRGQECVEECRV [9019.0062] has what IC50?
7040

a = ITGYLYISAWPDSLP [9019.0050]
b = AYVMAGVGSPYVSRL [9019.0077]
c = CMQIAKGMSYLEDVR [9019.0083]
# rank by IC50, ascending (min first) Please reply with the labels ordered as requested. Many thanks.
a, c, b
(a: 67 nM, c: 130 nM, b: 308 nM)

I = SDVWSYGVTVWELMT [9019.0089]
II = LREVRAVTSANIQEF [9019.0046]
Hi! Which is lower in terms of IC50, the first one I or the second one II ? Respond with the label that goes with your answer.
II
